EC50 values, listed per item
# SYSTEM_NAME: UniProt P34972
# TEST: cell-based
# Format: cell-based
# Parameters: Normalized Activity at 1 μM, CB2R; other: PINACA compounds, 1 μM; Normalized Activity at 1 μm, CB2R; other: 5-fluoro PB-22 isomers, 1 μm; other: MFα-CB2R, ST03 sterol strain, pH 5.8; activity against CB2R; other: at 10 nM, dose response; preference at CB2R of ADB-BINACA over AB-PINACA; signaling at CB2R in synthetic cannabinoid screen; fused on or other part: yeast mating factor alpha (MFα) pre-pro leader fused at the N-terminus as a trafficking signal
# RECORDED_CONDITIONS: MFα-CB2R, ST03 sterol strain, pH 5.8; read-out: EC50 at CB2R, dose response

| MOLECULE | EC50 |
| --- | --- |
| O=C(Oc1cccc2cnccc12)c1cn(CCCCCF)c2ccccc12 [5-fluoro PB-22 5-hydroxyisoquinoline isomer] | 216 nM |
| CCCCCn1nc(C(=O)N[C@H](C(N)=O)C(C)C)c2ccccc21 [AB-PINACA] | 107 nM |
| CC1(C)C(C(=O)c2cn(CC3CCOCC3)c3ccccc23)C1(C)C [A-834735] | 7.42 nM |
| COCCn1c(C)c(C)s/c1=N\C(=O)C1C(C)(C)C1(C)C [A-836339] | 16.3 nM |

* * *

# SYSTEM_NAME: human cannabinoid receptor type II (CB2R) (Homo sapiens, UniProt P34972)
# Sequence (P34972 whole entry): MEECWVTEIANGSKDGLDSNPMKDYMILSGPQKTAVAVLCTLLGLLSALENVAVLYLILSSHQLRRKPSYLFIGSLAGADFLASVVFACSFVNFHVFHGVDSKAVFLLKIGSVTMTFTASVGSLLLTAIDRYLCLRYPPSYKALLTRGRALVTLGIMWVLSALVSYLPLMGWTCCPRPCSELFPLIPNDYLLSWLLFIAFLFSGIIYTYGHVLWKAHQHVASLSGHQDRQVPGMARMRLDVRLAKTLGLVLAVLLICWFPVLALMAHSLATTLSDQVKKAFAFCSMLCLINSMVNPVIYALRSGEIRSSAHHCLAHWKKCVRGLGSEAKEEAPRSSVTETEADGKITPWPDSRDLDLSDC
# TEST: cell-based
# Assay type: cell-based
# Parameters: other: syn-prepro CB2R; "Syn=synthetic pre-pro"; fused on or other part: synthetic yeast pre-pro secretion leader (syn-prepro) fused at the N-terminus
# RECORDED_CONDITIONS: EC50, dose response with CB2R, syn-prepro CB2R

| SMILES_CODE | SYSTEM_NAME | EC50 [µM] |
| --- | --- | --- |
| CCCCC/C=C\C/C=C\C/C=C\C/C=C\CCCC(=O)OC(CO)CO | human cannabinoid receptor type II (CB2R) (Homo sapiens, UniProt P34972) | 1.54 |

* * *

# SYSTEM_NAME: human Cannabinoid Receptor 1 (CB1R) (Homo sapiens, UniProt P21554)
# Construct: syn-prepro (synthetic yeast pre-pro secretion leader) (N); expressed in transfected cells; host or cells: Saccharomyces cerevisiae BY4741-derived strain (ste2, sst2, far1 knocked out); Gpa1-Gαi3 chimera
# Sequence (P21554 90-472): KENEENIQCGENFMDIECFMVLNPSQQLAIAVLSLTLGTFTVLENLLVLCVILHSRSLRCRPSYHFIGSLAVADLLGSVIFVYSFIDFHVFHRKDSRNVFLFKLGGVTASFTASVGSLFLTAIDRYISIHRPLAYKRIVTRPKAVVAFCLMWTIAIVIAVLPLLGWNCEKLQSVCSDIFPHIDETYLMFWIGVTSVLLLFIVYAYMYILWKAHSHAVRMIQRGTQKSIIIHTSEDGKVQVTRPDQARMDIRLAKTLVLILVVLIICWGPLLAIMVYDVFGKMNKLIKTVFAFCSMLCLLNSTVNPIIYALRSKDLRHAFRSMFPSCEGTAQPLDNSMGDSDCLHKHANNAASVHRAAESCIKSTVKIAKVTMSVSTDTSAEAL
# Assay type: cell-based
# RECORDED_CONDITIONS: 5-fluoro PB-22 isomers, 1 μm
Listed here: items and their measured Normalized Activity at 1 μm, CB1R.

| COMPOUND | Normalized Activity at 1 μm, CB1R |
| --- | --- |
| O=C(Oc1cnc2ccccc2c1)c1cn(CCCCCF)c2ccccc12 | 0.530 |
| O=C(Oc1ccc2cccnc2c1)c1cn(CCCCCF)c2ccccc12 | 0.550 |
| O=C(Oc1cncc2ccccc12)c1cn(CCCCCF)c2ccccc12 | 0.570 |
| O=C(Oc1ccnc2ccccc12)c1cn(CCCCCF)c2ccccc12 [drawing 16] | 0.829 |
| O=C(Oc1ccc2ncccc2c1)c1cn(CCCCCF)c2ccccc12 | 0.500 |
| CCCC(F)Cn1nc(C(=O)Oc2cccc3cccnc23)c2ccccc21 (stereo not drawn) | 0.531 |

* * *

# SYSTEM_NAME: human Cannabinoid Receptor 1 (CB1R) (Homo sapiens, UniProt P21554)
# Construct: syn-prepro (synthetic yeast pre-pro secretion leader) (N); expressed in transfected cells; host or cells: Saccharomyces cerevisiae BY4741-derived strain (ste2, sst2, far1 knocked out); Gpa1-Gαi3 chimera
# Type: cell-based
# RECORDED_CONDITIONS: dose-response curves
MEASUREMENT_NAME: maximal signaling in CB1R dose response

| COMPOUND | MEASUREMENT_NAME | OBSERVED |
| --- | --- | --- |
| CCC(C(N)=O)N(C)C(=O)c1nn(Cc2ccc(F)cc2)c2ccccc12 (single isomer, unassigned; isomer 5) [AB-FUBINACA isomer 5] | maximal signaling in CB1R dose response | lower response |
| CCC(C)(NC(=O)c1nn(Cc2ccc(F)cc2)c2ccccc12)C(N)=O (single isomer, unassigned; isomer 2) [AB-FUBINACA isomer 2] | maximal signaling in CB1R dose response | lower response |
| CC(C)[C@H](NC(=O)c1nn(Cc2ccc(F)cc2)c2ccccc12)C(N)=O | maximal signaling in CB1R dose response | high maximal signaling |
| CCCC(NC(=O)c1nn(Cc2ccc(F)cc2)c2ccccc12)C(N)=O (single isomer, unassigned; isomer 1) [AB-FUBINACA isomer 1] | maximal signaling in CB1R dose response | high maximal signaling |

* * *

# SYSTEM_NAME: human Cannabinoid Receptor 1 (CB1R) (Homo sapiens, UniProt P21554)
# Construct: syn-prepro (synthetic yeast pre-pro secretion leader) (N); expressed in transfected cells; host or cells: Saccharomyces cerevisiae BY4741-derived strain (ste2, sst2, far1 knocked out); Gpa1-Gαi3 chimera
# Assay type: cell-based
# RECORDED_CONDITIONS: compounds at 1 μM
MEASUREMENT_NAME: signaling at CB1R in synthetic cannabinoid screen relative to 100 μM ACEA positive control

| COMPOUND | OBSERVED |
| --- | --- |
| CC(C)[C@H](NC(=O)c1cn(CC2CCCCC2)c2ccccc12)C(N)=O [AB-CHMICA] | CB1R agonists |
| CC(C)[C@H](NC(=O)c1cn(Cc2ccccc2)c2ccccc12)C(N)=O [AB-BICA] | CB1R agonists |
| CCCCCn1cc(-c2nc(CN(CC)CC)cs2)c2ccccc21 [PTI-1] | CB1R agonists |

* * *

# SYSTEM_NAME: human cannabinoid receptor type II (CB2R) (Homo sapiens)
# TEST: cell-based
# Assay type: cell-based
# Set-up: other: MF alpha leader CB2R; "MF-α=mating factor alpha pre-pro"; fused on or other part: yeast mating factor alpha (MFα) pre-pro leader fused at the N-terminus
# RECORDED_CONDITIONS: EC50, dose response with CB2R, MF alpha leader CB2R

| SMILES_CODE | EC50 |
| --- | --- |
| CCCCC/C=C\C/C=C\C/C=C\C/C=C\CCCC(=O)OC(CO)CO | 160 nM |

* * *

# SYSTEM_NAME: human Cannabinoid Receptor 1 (CB1R) (Homo sapiens)
# Construct: syn-prepro (synthetic yeast pre-pro secretion leader) (N); expressed in transfected cells; host or cells: Saccharomyces cerevisiae BY4741-derived strain (ste2, sst2, far1 knocked out); Gpa1-Gαi3 chimera
# Format: cell-based
# RECORDED_CONDITIONS: compounds at 1 μM
MEASUREMENT_NAME: signaling at CB1R in synthetic cannabinoid screen relative to 100 μM ACEA positive control

| COMPOUND | OBSERVED |
| --- | --- |
| CCCCCn1nc(C(=O)NC(C(N)=O)C(C)(C)C)c2ccccc21 (stereo not drawn) | maximal fluorescence |
| CC(C)[C@H](NC(=O)c1nn(Cc2ccc(F)cc2)c2ccccc12)C(N)=O | maximal fluorescence |

* * *

# SYSTEM_NAME: UniProtKB P34972
# TEST: cell-based
# Type: cell-based
# Parameters: Normalized Activity at 1 μM, CB2R; other: PINACA compounds, 1 μM; Normalized Activity at 1 μm, CB2R; other: 5-fluoro PB-22 isomers, 1 μm; other: MFα-CB2R, ST03 sterol strain, pH 5.8; activity against CB2R; other: at 10 nM, dose response; preference at CB2R of ADB-BINACA over AB-PINACA; signaling at CB2R in synthetic cannabinoid screen; fused on or other part: yeast mating factor alpha (MFα) pre-pro leader fused at the N-terminus as a trafficking signal
# RECORDED_CONDITIONS: PINACA compounds, 1 μM
# Description: To efficiently transduce signals from the human machinery to the yeast pathway, the yeast 5 C-terminal residues of the G-alpha gene GPA1 were replaced with the sequence of the Gαi3 human G-alpha variant as previously described (Brown et al. 2000). ZsGreen1 was used to report on the activity of the pathway, integrating it into the genome in place of the pheromone-inducible Fig1 gene (FIG. 14A). […]

| MOLECULE | SYSTEM_NAME | Normalized Activity at 1 μM, CB2R |
| --- | --- | --- |
| CCCCCn1nc(C(=O)NC(C(N)=O)C(C)(C)C)c2ccccc21 (stereo not shown) [drawing 2] | UniProtKB P34972 | 0.700 |
| CCCCCn1nc(C(=O)NC(C)(C(N)=O)C(C)C)c2ccccc21 (stereo not shown) | UniProtKB P34972 | 0.303 |
| CC(C)(C)C(NC(=O)c1cn(Cc2ccccc2)c2ccccc12)C(N)=O (stereo not shown) | UniProtKB P34972 | 0.255 |
| CCCCCn1nc(C(=O)N[C@H](C(N)=O)[C@@H](C)CC)c2ccccc21 (single isomer, unassigned) | UniProtKB P34972 | 0.568 |
| CCC(F)CCn1nc(C(=O)NC(C(N)=O)C(C)C)c2ccccc21 (stereo not shown) | UniProtKB P34972 | 0.310 |
| CCCCCn1nc(C(=O)N[C@@H](CCCC)C(N)=O)c2ccccc21 | UniProtKB P34972 | 0.460 |
| CCCC(F)Cn1nc(C(=O)NC(C(N)=O)C(C)C)c2ccccc21 (stereo not shown) | UniProtKB P34972 | 0.340 |
